Assign viability, T/C to each entry below.
Tested on: 186277-243-T-J2-PDC complex spheroids, viability
Assay: Anticancer human tumor 186277-243-T-J2-PDC patient-derived colon adenocarcinoma cell line growth inhibition [RAS]
Conditions: second compound 0.00949 µM; first compound 1 µM; active compounds read low
Return type: number; implicit unit %.

API: value(readout=viability, T/C, system=186277-243-T-J2-PDC complex spheroids, viability) for record NC1c2ccccc2OC12CCN(c1cnc3c(N4CCCc5ncccc54)n[nH]c3n1)CC2 (configuration not stated) + CCn1c(-c2cccnc2C(C)OC)c2c3cc(ccc31)N1CCOC(CC(NC(=O)C(C(C)C)N(C)C(=O)C3(F)CCN(C(=O)C#CC(C)(C)N(C)C)CC3)C(=O)N3CCCC(N3)C(=O)OCC(C)(C)C2)C1
119

What about CC1(O)CCCC1n1c(=O)c(C(F)F)cc2cnc(NC3CCN(S(C)(=O)=O)CC3)nc21 (configuration not stated) + CCn1c(-c2cc(N3CCN(C)CC3)cnc2C(C)OC)c2c3cc(ccc31)-c1csc(n1)CC(NC(=O)C1CC1C)C(=O)N1CCCC(N1)C(=O)OCC(C)(C)C2 ?
20.1

====

Tested on: 186277-243-T-J2-PDC complex spheroids, viability
Experiment: Anticancer human tumor 186277-243-T-J2-PDC cell line growth inhibition [RAS];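 also: spheroids exposed to compounds for 7 days before viability read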
Conditions: second compound 0.00949 µM; first compound 1 µM; active compounds read low
Provide the recorded viability, T/C for the entries that follow.
Dear colleague, please return just the value in %, with no unit written.

I would be grateful if you could share the reported viability, T/C for C=CC(=O)N1CCN(c2nc(OCC3CCCN3C)nc3c(F)c(-c4nc(N)cc(C)c4C(F)(F)F)c(Cl)cc23)C(C)C1 (centres undefined) + CCn1c(-c2cc(N3CCN(C)CC3)cnc2C(C)OC)c2c3cc(ccc31)-c1csc(n1)CC(NC(=O)C1CC1C)C(=O)N1CCCC(N1)C(=O)OCC(C)(C)C2 .
42.9

CCN1CCN(Cc2ccc(Nc3ncc(F)c(-c4cc(F)c5nc(C)n(C(C)C)c5c4)n3)nc2)CC1 + CCn1c(-c2cccnc2C(C)OC)c2c3cc(ccc31)N1CCOC(CC(NC(=O)C(C(C)C)N(C)C(=O)C3(F)CCN(C(=O)C#CC(C)(C)N(C)C)CC3)C(=O)N3CCCC(N3)C(=O)OCC(C)(C)C2)C1 , same question.
132

Same again, this time with CC(Nc1ccc2c(c1)OCCn1cc(N3C(=O)OCC3C(F)F)nc1-2)C(N)=O (centres undefined) + CCn1c(-c2cccnc2C(C)OC)c2c3cc(ccc31)N1CCOC(CC(NC(=O)C(C(C)C)N(C)C(=O)C3(F)CCN(C(=O)C#CC(C)(C)N(C)C)CC3)C(=O)N3CCCC(N3)C(=O)OCC(C)(C)C2)C1
52.1

What do you have for CC(=O)OC12COC1CC(O)C1(C)C(=O)C(O)C3=C(C)C(OC(=O)C(O)C(NC(=O)OC(C)(C)C)c4ccccc4)CC(O)(C(OC(=O)c4ccccc4)C21)C3(C)C (centres undefined) + CCn1c(-c2cc(N3CCN(C)CC3)cnc2C(C)OC)c2c3cc(ccc31)-c1csc(n1)CC(NC(=O)C1CC1C)C(=O)N1CCCC(N1)C(=O)OCC(C)(C)C2 ?
3.26

====

System: 186277-243-T-J2-PDC complex spheroids, viability
Assay: Anticancer human tumor 186277-243-T-J2-PDC cell line growth inhibition [RAS];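 also: spheroids exposed to compounds for 7 days before viability read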
Conditions: second compound 10 µM; first compound 0.316 µM; active compounds read low
hey, just use Criterion met if measured viability, T/C is less than 7%, otherwise Criterion not met

Dear colleague, could you confirm whether viability, T/C of NC1c2ccccc2OC12CCN(c1cnc3c(N4CCCc5ncccc54)n[nH]c3n1)CC2 (stereo unspecified) + C#Cc1c(F)ccc2cc(O)cc(-c3ncc4c(N5CC6CCC(C5)N6)nc(OCC56CCCN5CC(F)C6)nc4c3F)c12 falls below 7%? Thanks.
Criterion met

Same read-out for CC1(O)CCCC1n1c(=O)c(C(F)F)cc2cnc(NC3CCN(S(C)(=O)=O)CC3)nc21 (stereo unspecified) + C#Cc1c(F)ccc2cc(O)cc(-c3ncc4c(N5CC6CCC(C5)N6)nc(OCC56CCCN5CC(F)C6)nc4c3F)c12 ?
Criterion not met

Let us now turn to C[C@@H](NC(=O)c1ncnc(N)c1Cl)c1ncc(C(=O)Nc2cc(C(F)(F)F)c(Cl)cn2)s1 + C#Cc1c(F)ccc2cc(O)cc(-c3ncc4c(N5CC6CCC(C5)N6)nc(OCC56CCCN5CC(F)C6)nc4c3F)c12
Criterion not met

Please give the result for CCN1CCN(Cc2ccc(Nc3ncc(F)c(-c4cc(F)c5nc(C)n(C(C)C)c5c4)n3)nc2)CC1 + C#Cc1c(F)ccc2cc(O)cc(-c3ncc4c(N5CC6CCC(C5)N6)nc(OCC56CCCN5CC(F)C6)nc4c3F)c12 too.
Criterion not met

What do you have for C=CC(=O)Nc1cc(Nc2nccc(-c3cn(C)c4ccccc34)n2)c(OC)cc1N(C)CCN(C)C + C#Cc1c(F)ccc2cc(O)cc(-c3ncc4c(N5CC6CCC(C5)N6)nc(OCC56CCCN5CC(F)C6)nc4c3F)c12 ?
Criterion met

Same question, C=CC(=O)N1CCN(c2nc(OCC3CCCN3C)nc3c(F)c(-c4nc(N)cc(C)c4C(F)(F)F)c(Cl)cc23)C(C)C1 (stereo unspecified) + C#Cc1c(F)ccc2cc(O)cc(-c3ncc4c(N5CC6CCC(C5)N6)nc(OCC56CCCN5CC(F)C6)nc4c3F)c12 this time
Criterion not met

Repeat with CCC(CC)c1cc(NC2CCC(N)C2)n2nccc2n1 (stereo unspecified) + C#Cc1c(F)ccc2cc(O)cc(-c3ncc4c(N5CC6CCC(C5)N6)nc(OCC56CCCN5CC(F)C6)nc4c3F)c12
Criterion not met

Now consider CC(Nc1ccc2c(c1)OCCn1cc(N3C(=O)OCC3C(F)F)nc1-2)C(N)=O (stereo unspecified) + C#Cc1c(F)ccc2cc(O)cc(-c3ncc4c(N5CC6CCC(C5)N6)nc(OCC56CCCN5CC(F)C6)nc4c3F)c12 and answer again.
Criterion met

# iterate: Nc1ccn(C2OC(CO)C(O)C2(F)F)c(=O)n1 (stereo unspecified) + C#Cc1c(F)ccc2cc(O)cc(-c3ncc4c(N5CC6CCC(C5)N6)nc(OCC56CCCN5CC(F)C6)nc4c3F)c12
Criterion met

Further, for CC(C)NCC(C(=O)N1CCN(c2ncnc3c2C(C)CC3O)CC1)c1ccc(Cl)cc1 (stereo unspecified) + C#Cc1c(F)ccc2cc(O)cc(-c3ncc4c(N5CC6CCC(C5)N6)nc(OCC56CCCN5CC(F)C6)nc4c3F)c12 ?
Criterion met

What about this compound? O=C(c1ccc(F)c(F)c1Nc1ccc(I)cc1F)N1CC(O)([C@@H]2CCCCN2)C1 + C#Cc1c(F)ccc2cc(O)cc(-c3ncc4c(N5CC6CCC(C5)N6)nc(OCC56CCCN5CC(F)C6)nc4c3F)c12
Criterion met
